test system: A2780 Human Ovarian Carcinoma Xenografts; details: i.v. qd x 1 (mg/kg: Taxol 24, 1351 75.3, 1401 107.6, 1418 107.6, Taxotere 70), 2.0 g cut-off, Day 60
Each record here notes measured MDS (n).
measurement.type: MDS (n)

compound=CCC(=O)O[C@H]1C[C@H]2OC[C@@]2(OC(C)=O)[C@H]2[C@H](OC(=O)c3ccccc3)[C@]3(O)C[C@H](OC(=O)[C@H](O)[C@H](C=C(C)C)NC(=O)OC(C)(C)C)C(C)=C([C@@H](O)C(=O)[C@]12C)C3(C)C obs_value="23.0 ± 1.7 (4) days"
compound="CC(=O)O[C@H]1C(=O)[C@@]2(C)[C@H]([C@H](OC(=O)c3ccccc3)[C@]3(O)C[C@H](OC(=O)[C@H](O)[C@@H](NC(=O)c4ccccc4)c4ccccc4)C(C)=C1C3(C)C)[C@]1(OC(C)=O)CO[C@@H]1C[C@@H]2O [Taxol, paclitaxel, reference compound]" obs_value="21.9 ± 5.5 (5) days"

* * *

Each entry below carries its recorded pIC50.
tested on: HCT116; test: In Vitro cytotoxicity measured by the cell colony formation assay; assay type: cell-based; conditions: Homo sapiens, HCT-116; 72 h drug incubation, colonies counted after 7 days; concentration producing 50% inhibition of colony formation; read-out: IN VITRO ID 50 (nm) HCT116
pIC50: −log10 of the molar value.
measurement.type: pIC50

molecule="CCC(=O)O[C@H]1C[C@H]2OC[C@@]2(OC(C)=O)[C@H]2[C@H](OC(=O)c3ccccc3)[C@]3(O)C[C@H](OC(=O)[C@H](O)[C@@H](NC(=O)c4cccs4)c4cccs4)C(C)=C([C@@H](O)C(=O)[C@]12C)C3(C)C [Compound 3479]" obs_value="> 9.00"
molecule="CCC(=O)OC1CC2OCC2(OC(C)=O)C2C(OC(=O)c3ccccc3)C3(O)CC(OC(=O)C(O)C(NC(=O)c4ccccc4)c4ccco4)C(C)=C(C(O)C(=O)C12C)C3(C)C (stereo not drawn) [Compound 4017]" obs_value="> 8.00"
molecule="CCCC(=O)OC1CC2OCC2(OC(C)=O)C2C(OC(=O)c3ccccc3)C3(O)CC(OC(=O)C(O)C(NC(=O)OC(C)C)c4cccs4)C(C)=C(C(O)C(=O)C12C)C3(C)C (stereo not drawn) [Compound 4135]" obs_value="> 9.00"
molecule="CCC(=O)O[C@H]1C[C@H]2OC[C@@]2(OC(C)=O)[C@H]2[C@H](OC(=O)c3ccccc3)[C@]3(O)C[C@H](OC(=O)[C@H](O)[C@@H](NC(=O)OCC(C)C)c4cccs4)C(C)=C([C@@H](O)C(=O)[C@]12C)C3(C)C [Compound 3232]" obs_value="> 9.00"
molecule="C/C=C/C(=O)N[C@@H](c1cccs1)[C@@H](O)C(=O)O[C@H]1C[C@@]2(O)[C@@H](OC(=O)c3ccccc3)[C@@H]3[C@]4(OC(C)=O)CO[C@@H]4C[C@H](OC(=O)CC)[C@@]3(C)C(=O)[C@H](O)C(=C1C)C2(C)C [Compound 3560]" obs_value="> 9.00"
molecule="CC(=O)O[C@@]12CO[C@@H]1C[C@H](OC(=O)C(C)C)[C@@]1(C)C(=O)[C@H](O)C3=C(C)[C@@H](OC(=O)[C@H](O)[C@@H](NC(=O)C(C)C)c4ccco4)C[C@@](O)([C@@H](OC(=O)c4ccccc4)[C@H]21)C3(C)C [Compound 6121]" obs_value="> 8.00"
molecule="CCCC(=O)OC1CC2OCC2(OC(C)=O)C2C(OC(=O)c3ccccc3)C3(O)CC(OC(=O)C(O)C(NC(=O)OC(C)(C)C)c4ccsc4)C(C)=C(C(O)C(=O)C12C)C3(C)C (stereo not drawn) [Compound 4446]" obs_value="> 9.00"
molecule="CCC(=O)OC1CC2OCC2(OC(C)=O)C2C(OC(=O)c3ccccc3)C3(O)CC(OC(=O)C(O)C(NC(=O)c4cccs4)c4ccco4)C(C)=C(C(O)C(=O)C12C)C3(C)C (stereo not drawn) [Compound 3632]" obs_value="> 9.00"
molecule="CCC(C)(C)OC(=O)N[C@@H](c1ccco1)[C@@H](O)C(=O)O[C@H]1C[C@@]2(O)[C@@H](OC(=O)c3ccccc3)[C@@H]3[C@]4(OC(C)=O)CO[C@@H]4C[C@H](OC(=O)CC(C)C)[C@@]3(C)C(=O)[C@H](O)C(=C1C)C2(C)C [Compound 6282]" obs_value="> 8.00"
